All figures here come from patent US20230081426A1.

In this section we review reported IC50 values for a set of molecules.
- measured.on: G12V-mutant human KRAS (amino acid residues 1-188) (Homo sapiens, UniProt P01116, G12V)
- Construct: G12V-mutant human KRAS (amino acid residues 1-188) with FLAG tag was purified from E. coli; made in house; host or cells: E. coli
- test.description: KRAS Binding Competition Assay (AlphaScreen; biotinylated KRpep-2d analogue), G12V
- measurement.context: geometric mean, read-out: KRAS GMean IC50 (uM) MUTATION: G12V
assay.readout: IC50

[
  {
    "molecule": "CN1CCC[C@H]1COc1nc(N2[C@@H]3CC[C@H]2CN(C(=O)NO)C3)c2ccc(-c3cc(O)cc4ccccc34)cc2n1",
    "measurement": "10 to 100 µM"
  },
  {
    "molecule": "OCCCN1[C@@H]2CC[C@H]1CN(c1nc(OCC34CCCN3CCC4)nc3c(F)c(-c4cc(O)cc5ccccc45)ccc13)C2",
    "measurement": "0.0001 to 10 µM"
  },
  {
    "molecule": "CN1CCC[C@H]1COc1nc(N2C[C@@H]3C[C@H]2CN3)c2cc(Cl)c(-c3cc(O)cc4ccccc34)c(F)c2n1",
    "measurement": "10 to 100 µM"
  },
  {
    "molecule": "CN1CCc2ccc(Oc3nc(N4[C@@H]5CC[C@H]4CNC5)c4ccc(-c5cc(O)cc6ccccc56)cc4n3)cc2C1",
    "measurement": "10 to 100 µM"
  },
  {
    "molecule": "CN1CC[C@@H](NC(=O)N2CC3CCCC2CN3c2nc(OC[C@@H]3CCCN3C)nc3c(F)c(-c4cc(O)cc5ccccc45)ccc23)C1 (stereo partly shown)",
    "measurement": "0.0001 to 10 µM"
  },
  {
    "molecule": "CC(C(=O)N1[C@@H]2CC[C@H]1CN(c1nc(OCC34CCCN3CCC4)nc3c(F)c(-c4cc(O)cc5ccccc45)ccc13)C2)S(N)(=O)=O (stereo partly shown)",
    "measurement": "0.0001 to 10 µM"
  },
  {
    "molecule": "CN1CCC[C@H]1COc1nc(N2[C@@H]3CC[C@H]2CNC3)c2ccc(-c3cccc(O)c3)cc2n1",
    "measurement": "100 to 1000 µM"
  }
]

* * *

- measured.on: G12D-mutant human KRAS (amino acid residues 1-188) (Homo sapiens, UniProt P01116, G12D)
- Construct: G12D or G12C-mutant human KRAS (amino acid residues 1-188) with FLAG tag; made in house; host or cells: E. coli
- test.description: KRAS Binding Disruption Assay (AlphaScreen; biotinylated KRpep-2d analogue or RAF1-RBD), G12D
- measurement.context: KRAS G12D; geometric mean; read-out: KRAS GMean IC50 (uM) MUTATION: G12D

[
  {
    "compound": "CN1CCN(CCNS(=O)(=O)N2[C@@H]3CC[C@H]2CN(c2nc(OCC45CCCN4CCC5)nc4c(F)c(-c5cc(O)cc6ccccc56)ccc24)C3)CC1",
    "IC50": "0.0001 to 10 µM"
  },
  {
    "compound": "Oc1cc(-c2ccc3c(N4C[C@H]5CC[C@@H](C4)N5)nc(N4CC(O)(C(F)(F)F)C4)nc3c2F)c2ccccc2c1",
    "IC50": "0.0001 to 10 µM"
  },
  {
    "compound": "O=C(Cn1ccnc1)N1[C@@H]2CC[C@H]1CN(c1nc(OCC34CCCN3CCC4)nc3c(F)c(-c4cc(O)cc5ccccc45)ccc13)C2",
    "IC50": "0.0001 to 10 µM"
  },
  {
    "compound": "Oc1cc(-c2ccc3c(N4C[C@H]5CC[C@@H](C4)N5)nc(OCC4CC(F)(F)C4(F)F)nc3c2F)c2ccccc2c1 (stereo partly shown)",
    "IC50": "0.0001 to 10 µM"
  },
  {
    "compound": "Oc1cc(-c2ccc3c(N4C[C@H]5CC[C@@H](C4)N5)nc(OCC4CCOC4)nc3c2)c2ccccc2c1 (stereo partly shown)",
    "IC50": "0.0001 to 10 µM"
  },
  {
    "compound": "CN1CCC[C@H]1COc1nc(N2C[C@H]3CC[C@@H](C2)N3)c2cc(F)c(-c3c(O)cccc3F)c(F)c2n1",
    "IC50": "0.0001 to 10 µM"
  },
  {
    "compound": "Cc1cc(C(=O)N2[C@@H]3CC[C@H]2CN(c2nc(OCC45CCCN4CCC5)nc4cc(-c5cc(O)cc6ccccc56)ccc24)C3)[nH]c(=O)n1",
    "IC50": "0.0001 to 10 µM"
  },
  {
    "compound": "CN1CCC[C@H]1COc1nc(N2C[C@H]3CC[C@@H](C2)N3C(=O)c2n[nH]c(=O)[nH]2)c2ccc(-c3cc(O)cc4ccccc34)cc2n1",
    "IC50": "10 to 100 µM"
  },
  {
    "compound": "Oc1cc(-c2ccc3c(N4[C@@H]5CC[C@H]4CNC5)nc(CCc4cccnc4)nc3c2)c2ccccc2c1",
    "IC50": "0.0001 to 10 µM"
  },
  {
    "compound": "CN1CC[C@H](NC(=O)N2[C@@H]3CC[C@H]2CN(c2nc(OCC45CCCN4CCC5)nc4cc(-c5cc(O)cc6ccccc56)ccc24)C3)C1",
    "IC50": "0.0001 to 10 µM"
  },
  {
    "compound": "CN1CCC[C@H]1COc1nc(N2[C@@H]3CC[C@H]2CN(C(=O)C(=O)Nc2ccccn2)C3)c2ccc(-c3cc(O)cc4ccccc34)cc2n1",
    "IC50": "10 to 100 µM"
  },
  {
    "compound": "CNC(=O)C(C)(C)COc1nc(N2C[C@H]3CC[C@@H](C2)N3)c2ccc(-c3cc(O)cc4ccccc34)c(F)c2n1",
    "IC50": "0.0001 to 10 µM"
  },
  {
    "compound": "CCc1cccc2[nH]cc(-c3ccc4c(N5C[C@H]6CC[C@@H](C5)N6)nc(OC[C@@]56CCCN5C[C@H](F)C6)nc4c3F)c12",
    "IC50": "0.0001 to 10 µM"
  }
]

* * *

- measured.on: G12D-mutant human KRAS (amino acid residues 1-188) (Homo sapiens, UniProt P01116, G12D)
- Construct: G12D or G12C-mutant human KRAS (amino acid residues 1-188) with FLAG tag; made in house; host or cells: E. coli
- test.description: KRAS Binding Disruption Assay (AlphaScreen; biotinylated KRpep-2d analogue or RAF1-RBD), G12D
- measurement.context: KRAS G12D; geometric mean; read-out: KRAS GMean IC50 (uM) MUTATION: G12D
assay.readout: IC50

[
  {
    "compound": "Cc1cccc2c(Nc3ccc4c(N5C[C@H]6CC[C@@H](C5)N6)nc(OC[C@@H]5CCCN5C)nc4c3F)n[nH]c12 [P-0437]",
    "measurement": "10 to 100 µM"
  },
  {
    "compound": "O=C(N[C@@H]1CCNC1)N1[C@@H]2CC[C@H]1CN(c1nc(OCC34CCCN3CCC4)nc3cc(-c4cc(O)cc5ccccc45)ccc13)C2 [P-0122]",
    "measurement": "0.0001 to 10 µM"
  },
  {
    "compound": "Fc1cc2c(N3C[C@H]4CC[C@@H](C3)N4)nc(OCC34CCCN3CCC4)nc2c(F)c1-c1c[nH]c2ccc(Cl)cc12 [P-0373]",
    "measurement": "0.0001 to 10 µM"
  },
  {
    "compound": "Oc1cc(-c2ccc3c(N4C[C@H]5CC[C@@H](C4)N5)nc(OCC4CC(O)C4)nc3c2F)c2ccccc2c1 (some centres unmarked) [P-0650]",
    "measurement": "0.0001 to 10 µM"
  },
  {
    "compound": "O=C1CCCN1CCOc1nc(N2C[C@H]3CC[C@@H](C2)N3)c2ccc(-c3cc(O)cc4ccccc34)c(F)c2n1 [P-0693]",
    "measurement": "0.0001 to 10 µM"
  },
  {
    "compound": "O=C(O)CCc1cccc2[nH]cc(-c3ccc4c(N5C[C@H]6CC[C@@H](C5)N6)nc(OCC56CCCN5CCC6)nc4c3F)c12 [P-0518]",
    "measurement": "0.0001 to 10 µM"
  },
  {
    "compound": "CN1CCC[C@H]1COc1nc(N2C[C@H]3CC[C@@H](C2)N3)c2ccc(-c3cc(O)c(F)c4ccccc34)cc2n1 [P-0385]",
    "measurement": "0.0001 to 10 µM"
  },
  {
    "compound": "CN1CCC[C@H]1COc1nc(N2[C@@H]3CC[C@H]2CN(C(=O)Nc2ccn[nH]2)C3)c2ccc(-c3cc(O)cc4ccccc34)cc2n1 [P-0271]",
    "measurement": "10 to 100 µM"
  },
  {
    "compound": "CN1CCC[C@H]1COc1nc(N2CC3COCC(C2)N3C(=O)NC2CCOC2)c2ccc(-c3cc(O)cc4ccccc34)c(F)c2n1 (mixture of isomers) [P-0251]",
    "measurement": "0.0001 to 10 µM"
  },
  {
    "compound": "O=C(CO)C1(O)CN(c2nc(N3C[C@H]4CC[C@@H](C3)N4)c3ccc(-c4cc(O)cc5ccccc45)c(F)c3n2)C1 [P-0507]",
    "measurement": "0.0001 to 10 µM"
  },
  {
    "compound": "CN1CCC[C@H]1COc1nc(N2C[C@H]3CC[C@@H](C2)N3)c2ccc(-c3c[nH]c4cccc(C(F)(F)F)c34)cc2n1 [P-0729]",
    "measurement": "0.0001 to 10 µM"
  },
  {
    "compound": "CN(C)CCc1nc(N2C[C@H]3CC[C@@H](C2)N3)c2ccc(-c3cc(O)cc4ccccc34)c(F)c2n1 [P-0413]",
    "measurement": "0.0001 to 10 µM"
  },
  {
    "compound": "Cc1cccc2c1N(c1ccc3c(N4C[C@H]5CC[C@@H](C4)N5)nc(OC[C@@H]4CCCN4C)nc3c1)CC(O)C2 (some centres unmarked) [P-0406]",
    "measurement": "10 to 100 µM"
  },
  {
    "compound": "Oc1cc(-c2ccc3c(N4C[C@H]5CC[C@@H](C4)N5)nc(OCC(F)F)nc3c2F)c2ccccc2c1 [P-0749]",
    "measurement": "0.0001 to 10 µM"
  }
]
